study_target: human insulin-like growth factor-I (IGF-I) (human, UniProt P05019 49-118)
assay: cell-based or functional assay
# maps each entry to its EC50 (nM), mean (n = 3), IGF-I Proliferation Assay, NIH3T3/hIGF-IR cells
reported_property: EC50 (nM), mean (n = 3), IGF-I Proliferation Assay, NIH3T3/hIGF-IR cells

INSERT INTO results (binder, measured_result) VALUES
  ('mAb 7.159.2 (antibody, V domains shown, Fully human XenoMouse hybridoma mAb, lambda light chain (V1-19/JL2); Sister clones 7.159.1 and 7.159.2 are said to be identical; also called 7.159.1; 7_159_1) VH: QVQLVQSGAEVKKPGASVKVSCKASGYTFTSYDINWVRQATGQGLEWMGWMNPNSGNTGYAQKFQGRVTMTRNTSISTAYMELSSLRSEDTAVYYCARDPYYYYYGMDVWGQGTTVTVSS VL: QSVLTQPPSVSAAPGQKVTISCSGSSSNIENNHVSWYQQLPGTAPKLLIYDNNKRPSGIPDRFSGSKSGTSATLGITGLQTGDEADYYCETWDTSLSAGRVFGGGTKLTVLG', '24.1 nM'),
  ('mAb 7.251.3 (antibody, V domains shown, Fully human XenoMouse hybridoma mAb, lambda light chain (V1-13/JL2); also called ATCC PTA-7422) VH: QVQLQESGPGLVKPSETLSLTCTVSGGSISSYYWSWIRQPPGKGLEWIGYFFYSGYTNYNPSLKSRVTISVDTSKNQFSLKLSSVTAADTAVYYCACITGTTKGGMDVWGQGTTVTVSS VL: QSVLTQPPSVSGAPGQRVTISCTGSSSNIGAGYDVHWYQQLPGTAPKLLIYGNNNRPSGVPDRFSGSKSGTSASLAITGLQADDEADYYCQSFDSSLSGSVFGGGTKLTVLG', '38.9 nM'),
  ('mAb 7.34.1 (antibody, V domains shown, Fully human XenoMouse hybridoma mAb, lambda light chain (V1-13/JL2); also called ATCC PTA-7423) VH: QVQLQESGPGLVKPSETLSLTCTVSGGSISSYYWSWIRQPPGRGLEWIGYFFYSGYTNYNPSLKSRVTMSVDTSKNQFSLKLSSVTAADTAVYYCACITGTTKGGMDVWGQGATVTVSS VL: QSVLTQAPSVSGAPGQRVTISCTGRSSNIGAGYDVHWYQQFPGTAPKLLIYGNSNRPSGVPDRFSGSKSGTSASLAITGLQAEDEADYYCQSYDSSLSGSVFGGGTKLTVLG', '23.4 nM'),
  ('mAb 7.158.2 (antibody, V domains shown, Kappa light chain (L5/JK3); also called 7.158.1; 7_158_1) VH: QLQLQESGPGLVKPSETLSLTCTVSGGSIRSSSYYWGWIRQPPGKGLEWIGGIYYSGSTYYNPSLKSRVTMSVDTSKNQFSLKLSSVTAADTAVYYCARQRGHSSGWWYFDLWGRGTLVTVSS VL: DIQMTQSPSSVSASVGDSVTITCRASQGISSYLAWYQQKPGKAPKLLIYAASSLQSGVPSRFSGNGSGTDFTLTISSLQPEDFATYYCQQANNFPFTFGPGTKVDIKR', '42.8 nM');
